From: PubChem BioAssay AID1919009

Task for the reader: assign each of the following compounds its reported viability, T/C.
Tested on: K24384-001-R-PDC complex spheroid growth
Test: Anticancer human tumor K24384-001-R-PDC patient-derived pancreatic adenocarcinoma cell line growth inhibition [AhR]
Conditions: second compound 3.16 µM; first compound 0.0316 µM; active compounds read low
From the text: Multicellular complex tumor spheroid response to aryl hydrocarbon receptor antagonists in combination with a variety of drugs and investigational agents in selected tumor cell lines […] Compounds. […] If the clinical Cmax for an agent had not been determined, the highest concentration tested was 10 microM (Table 1). […]
Enter your answer as a number in %; do not include the unit.

Which viability, T/C is reported for this compound? NS(=O)(=O)OCC1CC(n2ccc3c(NC4CCc5ccccc54)ncnc32)CC1O (stereo not drawn) + Cc1ccccc1N=Nc1ccc(NC(=O)c2ccnn2C)c(C)c1
103

Which viability, T/C is reported for this compound? COc1ccc([C@@H](O)c2cc(-c3ncnc4cc(N5CCOCC5)ccc34)c(F)cc2Cl)nn1 + CC(CO)NC(=O)c1cc(-c2ccc(Cl)cc2)nn(-c2cnn(C)c2)c1=O
74.5

Which viability, T/C is reported for this compound? CC1COCCN1c1cc(C2(S(C)(=N)=O)CC2)nc(-c2ccnc3[nH]ccc23)n1 (stereo not drawn) + CC(CO)NC(=O)c1cc(-c2ccc(Cl)cc2)nn(-c2cnn(C)c2)c1=O
125

---

test system: K24384-001-R-PDC complex spheroid growth; experiment: Anticancer human tumor K24384-001-R-PDC cell line growth inhibition [AhR]; conditions: second compound 3.16 µM; first compound 0.003 µM; active compounds read low;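 further: percent of DMSO vehicle-treated spheroid viability set as 100%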
Assay readout: viability, T/C (%)
Enter your answer as a number in %; do not include the unit.

Which viability, T/C is reported for this compound? CCc1c2c(nc3ccc(O)cc13)-c1cc3c(c(=O)n1C2)COC(=O)[C@]3(O)CC + Cc1cncc(-c2nc(NCCc3c[nH]c4ccccc34)c3ncn(C(C)C)c3n2)c1
52.6

Which viability, T/C is reported for this compound? CCc1c2c(nc3ccc(O)cc13)-c1cc3c(c(=O)n1C2)COC(=O)[C@]3(O)CC + Cc1ccccc1N=Nc1ccc(NC(=O)c2ccnn2C)c(C)c1
62

Which viability, T/C is reported for this compound? Nc1ncn(C2CC(O)C(CO)S2)c(=O)n1 (centres undefined) + Cc1cncc(-c2nc(NCCc3c[nH]c4ccccc34)c3ncn(C(C)C)c3n2)c1
38.4

Which viability, T/C is reported for this compound? Nc1ncn(C2CC(O)C(CO)S2)c(=O)n1 (centres undefined) + Cc1ccccc1N=Nc1ccc(NC(=O)c2ccnn2C)c(C)c1
83.3

Which viability, T/C is reported for this compound? CCc1c2c(nc3ccc(O)cc13)-c1cc3c(c(=O)n1C2)COC(=O)[C@]3(O)CC + CC(CO)NC(=O)c1cc(-c2ccc(Cl)cc2)nn(-c2cnn(C)c2)c1=O
52.6

Which viability, T/C is reported for this compound? CC(C)CC(NC(=O)C(Cc1ccccc1)NC(=O)c1cnccn1)B(O)O (centres undefined) + Cc1cncc(-c2nc(NCCc3c[nH]c4ccccc34)c3ncn(C(C)C)c3n2)c1
97

Which viability, T/C is reported for this compound? CC(C)CC(NC(=O)C(Cc1ccccc1)NC(=O)c1cnccn1)B(O)O (centres undefined) + Cc1ccccc1N=Nc1ccc(NC(=O)c2ccnn2C)c(C)c1
102

Which viability, T/C is reported for this compound? Nc1ncn(C2CC(O)C(CO)S2)c(=O)n1 (centres undefined) + CC(CO)NC(=O)c1cc(-c2ccc(Cl)cc2)nn(-c2cnn(C)c2)c1=O
124

Which viability, T/C is reported for this compound? CC(C)CC(NC(=O)C(Cc1ccccc1)NC(=O)c1cnccn1)B(O)O (centres undefined) + CC(CO)NC(=O)c1cc(-c2ccc(Cl)cc2)nn(-c2cnn(C)c2)c1=O
99.2
